Where do these numbers come from? They come from paper PMC12298351.

system: SNB-75; details: read-out: 50% lethal concentration (LC50); SNB-75, CNS
measurementKind: CC50 (µM)
Give the value, in units of µM, as a plain number.

# return recorded CC50 for input C=C1CCC2C3(C)COC(c4cn(-c5ccccc5)nc4-c4ccc(Br)cc4)OC3CCC2(C)C1CC=C1C(=O)OCC1O (stereo not shown)
5.75

# return recorded CC50 for input C=C1CCC2C3(C)COC(c4cn(-c5ccccc5)nc4-c4ccc(Cl)cc4)OC3CCC2(C)C1CC=C1C(=O)OCC1O (stereo not shown)
5.87

# return recorded CC50 for input C=C1CCC2C3(C)COC(c4cn(-c5ccccc5)nc4-c4ccc(F)cc4)OC3CCC2(C)C1CC=C1C(=O)OCC1O (stereo not shown)
5.86

# return recorded CC50 for input C=C1CCC2C3(C)COC(c4cn(-c5ccccc5)nc4-c4ccc(C)cc4)OC3CCC2(C)C1CC=C1C(=O)OCC1O (stereo not shown)
6.55

# return recorded CC50 for input C=C1CCC2C3(C)COC(c4cn(-c5ccccc5)nc4-c4cccc(Cl)c4)OC3CCC2(C)C1CC=C1C(=O)OCC1O (stereo not shown)
8.84

# return recorded CC50 for input C=C1CCC2C3(C)COC(c4cn(-c5ccccc5)nc4-c4ccc(OC)cc4)OC3CCC2(C)C1CC=C1C(=O)OCC1O (stereo not shown)
24.4

# return recorded CC50 for input C=C1CCC2C3(C)COC(c4cn(-c5ccccc5)nc4-c4cccc(Br)c4)OC3CCC2(C)C1CC=C1C(=O)OCC1O (stereo not shown)
22.9

# return recorded CC50 for input C=C1CCC2C3(C)COC(c4cn(-c5ccccc5)nc4-c4cccc(F)c4)OC3CCC2(C)C1CC=C1C(=O)OCC1O (stereo not shown)
5.82

# return recorded CC50 for input C=C1CCC2C3(C)COC(c4cn(-c5ccccc5)nc4-c4ccccc4)OC3CCC2(C)C1CC=C1C(=O)OCC1O (stereo not shown)
26.5
